All figures here come from ChEMBL document CHEMBL1158580.

MIC overview
Test system: Staphylococcus aureus
Assay: Antibacterial activity against Staphylococcus aureus NCIM 5021 by microdilution method
Type: functional
measurement_kind: MIC (mM)

1) CSc1ccc(C2CC(c3cccc4c3OCO4)=NN2c2ccccc2)cc1 (stereo not given) | 0.644
2) CS(=O)(=O)c1ccc(C2CC(c3ccc(Cl)cc3)=NN2c2ccccc2)cc1 (stereo not given) | 0.608
3) CSc1ccc(C2CC(c3ccc(Cl)cc3)=NN2c2ccccc2)cc1 (stereo not given) | 0.66
4) CSc1ccc(C2CC(c3cccc([N+](=O)[O-])c3)=NN2c2ccccc2)cc1 (stereo not given) | 0.642
5) COc1ccc(C2=NN(c3ccccc3)C(c3ccc(SC)cc3)C2)cc1 (stereo not given) | 0.668
